study-target: T1, human CD3e/g antigen (ACRO, catalog number CDG-H52W5) (human, UniProt P07766 23-126; P09693 23-116)
T1 construct: Bought reagent used as the Biacore analyte; also called hCD3e/g
method-summary: SPR (Biacore 8K), antibody captured via anti-human Fc
measured-metric: kon (M⁻¹ s⁻¹)
Please give a number only; it is taken to be in M⁻¹ s⁻¹.

Here's what some known entries look like.
>>> observed("hAb001-26 (antibody, V domains shown, Humanized; constant regions not specified) VH: QVQLVQSGAEVKKPGASVKVSCKASGYSFTNYYMHWVRQAPGQRLEWIGWTYPGNNNIKYNEKFKGRATITADTSASTAYMELSSLRSEDTAVYYCARDGYGYYFFDYWGQGTLVTVSS VL: DIVMTQSPDSLAVSLGERATINCKSSQSLLNNRTRKNYLAWYQQKPGQPPKLLIYWASTRESGVPDRFTGSGSGTDFTLTISSLQAEDVAVYYCKQSYTLRTFGGGTKLEIK")
386000
>>> observed("hAb008-27 (antibody, V domains shown, Humanized; constant regions not specified) VH: QVQLVQSGAEVKKPGASVKVSCKASGYTFTDYTVNWVRQAPGQRLEWIGYINPFNSYTKYNQKFKDRATITADTSASTAYMELSSLRSEDTAVYFCANSVSTYWGQGTTVTVSS VL: DVVMTQSPLSLPVTLGQPASISCKSSQSLLDSDGKTYLNWLLQRPGQSPRRLIQLVSKLNSGVPDRFSGSGSGTDFTLKISRVEAEDVGVFYCWQGTHFPRTFGGGTKLEIK")
264000

Now for the binder whose kon we want.
Query block: What measured kon goes with hAb007-31 (antibody, V domains shown, Humanized; constant regions not specified) VH: QVQLVQSGAEVKKPGASVKVSCKASGSTFTDNYIHWVKQAPGQRLEWIGWIYPGSVNIKYNEKFKDRATITADTSATTAYMELSSLRSEDTAVYYCARDISRYYFDYWGQGTTVTVSS VL: DIVMTQSPDSLAVSLGERATMNCKSSQSLLNSRTRKNYLAWYQQKPGQPPKLLIYWASTRESGVPDRFSGSGSGTDFTLTISSLQAEDVAVYYCKQSFILRTFGGGTKLEIK ?
Result block: 427000
